Entries and their measured pKd follow.
# target system: GDP-bound KRAS wild-type protein (Homo sapiens, UniProt P01116)
# Sequence (P01116 1-188 isoform P01116-2): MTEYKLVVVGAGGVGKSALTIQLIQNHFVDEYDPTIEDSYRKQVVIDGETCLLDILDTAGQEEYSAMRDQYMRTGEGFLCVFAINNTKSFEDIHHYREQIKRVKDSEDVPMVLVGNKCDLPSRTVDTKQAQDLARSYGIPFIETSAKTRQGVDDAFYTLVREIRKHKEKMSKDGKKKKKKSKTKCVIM
# protocol text: Binding to KRAS by surface plasmon resonance (SPR), dissociation constant KD
# assay conditions: 1:1 binding model
pKd: −log10 of the molar value.
recorded endpoint: pKd

1) CCO[C@@H]1C[C@H]2C(=O)NC3(CC(C)(C)C3)C(=O)N(C)[C@@H](C3CCCC3)C(=O)N(C)[C@H](C(=O)N(C)CC)CC(=O)N(C)[C@@H](CC(C)C)C(=O)N[C@@H]([C@@H](C)CC)C(=O)N(C)CC(=O)N(C)[C@H]3C/C=C\CCN(C3=O)[C@@H](Cc3ccc(C(F)F)cc3)C(=O)N(C)CC(=O)N[C@@H](CCc3ccc(C4CC4)c(C)c3)C(=O)N2C1 [PP3156] | 8.70
2) CCC(CC)[C@H]1C(=O)N(C)[C@H](C(=O)N2CCCCC2)CC(=O)N(C)[C@@H](COC)C(=O)N[C@@H]([C@@H](C)CC)C(=O)N(C)CC(=O)N(C)[C@H]2C/C=C\CCN(C2=O)[C@@H](Cc2ccc(C(F)(F)F)cc2)C(=O)N(C)CC(=O)N[C@@H](CCc2ccc(Cl)c(Cl)c2)C(=O)N2C[C@H](OC(C)C)C[C@H]2C(=O)NC2(CC(C)(C)C2)C(=O)N1C [PP2612] | 8.62
3) CCC(CC)[C@H]1C(=O)N(C)[C@H](C(=O)N(C)C)CC(=O)N(C)[C@@H](COC)C(=O)N[C@@H]([C@@H](C)CC)C(=O)N(C2CC2)CC(=O)N(C)[C@H]2C/C=C\CCN(C2=O)[C@@H](CC2CCC(F)(F)CC2)C(=O)N(C)CC(=O)N[C@@H](CCc2cc(F)c(C(F)(F)F)c(F)c2)C(=O)N2C[C@H](OC3CCCC3)C[C@H]2C(=O)NC2(CC(C)(C)C2)C(=O)N1C [PP2627] | 8.59

Provenance of the data: patent EP4603105A1
